Provenance of the data: paper PMC5705597

biological target: KCC2 (Homo sapiens); construct: N-terminal tagged Flag-Avi-His-KCC2, residues 1–1116 of NP_065759 (human KCC2 isoform 2), purified full length; assay: SPR (Biacore S200), steady-state Langmuir fit on immobilized purified KCC2
Sequence (Q9H2X9 1-1116 isoform Q9H2X9-2): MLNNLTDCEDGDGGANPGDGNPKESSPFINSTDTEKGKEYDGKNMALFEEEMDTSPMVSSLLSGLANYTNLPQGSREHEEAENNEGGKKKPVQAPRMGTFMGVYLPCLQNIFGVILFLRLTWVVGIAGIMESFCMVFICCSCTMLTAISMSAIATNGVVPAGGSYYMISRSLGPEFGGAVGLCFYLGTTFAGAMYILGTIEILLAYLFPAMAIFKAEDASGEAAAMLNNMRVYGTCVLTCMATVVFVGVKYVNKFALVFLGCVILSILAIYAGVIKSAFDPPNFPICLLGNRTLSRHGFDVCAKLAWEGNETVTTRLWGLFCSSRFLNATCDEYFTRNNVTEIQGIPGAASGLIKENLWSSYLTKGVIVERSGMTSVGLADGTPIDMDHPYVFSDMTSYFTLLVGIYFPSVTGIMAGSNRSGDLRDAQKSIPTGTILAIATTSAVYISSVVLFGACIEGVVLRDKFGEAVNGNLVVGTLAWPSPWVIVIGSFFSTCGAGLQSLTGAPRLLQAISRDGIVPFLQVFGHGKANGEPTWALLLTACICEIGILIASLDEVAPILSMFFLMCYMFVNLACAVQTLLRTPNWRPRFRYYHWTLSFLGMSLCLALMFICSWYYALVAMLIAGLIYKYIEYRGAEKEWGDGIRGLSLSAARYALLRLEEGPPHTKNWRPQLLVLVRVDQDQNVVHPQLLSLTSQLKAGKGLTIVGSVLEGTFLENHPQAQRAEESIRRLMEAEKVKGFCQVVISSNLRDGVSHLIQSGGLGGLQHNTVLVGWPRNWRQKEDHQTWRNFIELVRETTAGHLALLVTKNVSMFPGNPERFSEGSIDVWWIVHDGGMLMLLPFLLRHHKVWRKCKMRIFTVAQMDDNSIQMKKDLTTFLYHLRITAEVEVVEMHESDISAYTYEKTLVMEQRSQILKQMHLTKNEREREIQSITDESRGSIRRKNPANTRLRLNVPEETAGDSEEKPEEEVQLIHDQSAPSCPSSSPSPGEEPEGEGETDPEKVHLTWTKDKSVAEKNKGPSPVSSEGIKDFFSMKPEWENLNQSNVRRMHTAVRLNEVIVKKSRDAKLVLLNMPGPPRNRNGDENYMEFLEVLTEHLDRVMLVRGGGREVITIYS
measure: Kd (µM)
Record the value in µM, omitting the unit from your answer.

Name the reported Kd value associated with the compound `Cc1csc(N(C(=O)CSc2ccc(-c3ccccc3)nn2)C2CC2)n1`
3
